FYI, the data here is from PubChem BioAssay AID1918999.

# System: 556581-035-R-J1-PDC complex spheroid growth
# assay.details: Anticancer human tumor 556581-035-R-J1-PDC patient-derived ovarian carcinoma cell line growth inhibition [AhR]
# stated.conditions: second compound 0.1 µM; first compound 0.1 µM; stronger effect = lower value
measured.parameter: viability, T/C (%)
Note: unit % is implicit; provide only the numeric part.

# compound, measured.parameter, measured
records = [
    ("COc1cc(C2c3cc4c(cc3C(OC3OC5COC(C)OC5C(O)C3O)C3COC(=O)C23)OCO4)cc(OC)c1O (stereo not given) + Cc1cncc(-c2nc(NCCc3c[nH]c4ccccc34)c3ncn(C(C)C)c3n2)c1", "viability, T/C", 97.9),
]

IN: GET /values?readout=viability, T/C&system=556581-035-R-J1-PDC complex spheroid growth&item= Nc1ccccc1NC(=O)c1ccc(CNC(=O)OCc2cccnc2)cc1 + Cc1ccccc1N=Nc1ccc(NC(=O)c2ccnn2C)c(C)c1
OUT: 112

IN: What would you report for CC1(C)CCC(CN2CCN(c3ccc(C(=O)NS(=O)(=O)c4ccc(NCC5CCOCC5)c([N+](=O)[O-])c4)c(Oc4cnc5[nH]ccc5c4)c3)CC2)=C(c2ccc(Cl)cc2)C1 + CC(CO)NC(=O)c1cc(-c2ccc(Cl)cc2)nn(-c2cnn(C)c2)c1=O ?
OUT: 111

IN: What would you report for COc1cccc2c1C(=O)c1c(O)c3c(c(O)c1C2=O)CC(O)(C(=O)CO)CC3OC1CC(N)C(O)C(C)O1 (stereo not given) + Cc1ccccc1N=Nc1ccc(NC(=O)c2ccnn2C)c(C)c1 ?
OUT: 78

IN: What would you report for NS(=O)(=O)OCC1CC(n2ccc3c(NC4CCc5ccccc54)ncnc32)CC1O (stereo not given) + Cc1cncc(-c2nc(NCCc3c[nH]c4ccccc34)c3ncn(C(C)C)c3n2)c1 ?
OUT: 102

* * *

Below, each entry is listed with its recorded IC50.
# Test system: 556581-035-R-J1-PDC complex spheroid growth
# assay.details: Anticancer human tumor 556581-035-R-J1-PDC cell line growth inhibition [AhR]
# stated.conditions: curve of first compound; second compound 3.16 µM
# Text: Multicellular complex tumor spheroid response to aryl hydrocarbon receptor antagonists in combination with a variety of drugs and investigational agents in selected tumor cell lines […] Compounds. […] If the clinical Cmax for an agent had not been determined, the highest concentration tested was 10 microM (Table 1). […]

Guide cases for IC50, answers given:
# molecule, measured
measured = [
    ("CCc1c2c(nc3ccc(O)cc13)-c1cc3c(c(=O)n1C2)COC(=O)[C@]3(O)CC + Cc1cncc(-c2nc(NCCc3c[nH]c4ccccc34)c3ncn(C(C)C)c3n2)c1", "0.0185 µM"),
    ("COc1cc(Nc2ncc3c(n2)-c2ccc(Cl)cc2C(c2c(F)cccc2OC)=NC3)ccc1C(=O)O + Cc1cncc(-c2nc(NCCc3c[nH]c4ccccc34)c3ncn(C(C)C)c3n2)c1", "> 10 µM"),
    ("COc1cc(C2c3cc4c(cc3C(OC3OC5COC(C)OC5C(O)C3O)C3COC(=O)C23)OCO4)cc(OC)c1O (centres undefined) + CC(CO)NC(=O)c1cc(-c2ccc(Cl)cc2)nn(-c2cnn(C)c2)c1=O", "6.63 µM"),
    ("CCc1c2c(nc3ccc(O)cc13)-c1cc3c(c(=O)n1C2)COC(=O)[C@]3(O)CC + Cc1ccccc1N=Nc1ccc(NC(=O)c2ccnn2C)c(C)c1", "0.0205 µM"),
    ("CCN(c1cc(-c2ccc(CN3CCOCC3)cc2)cc(C(=O)NCc2c(C)cc(C)[nH]c2=O)c1C)C1CCOCC1 + Cc1cncc(-c2nc(NCCc3c[nH]c4ccccc34)c3ncn(C(C)C)c3n2)c1", "> 3 µM"),
    ("O=C(c1cc(Cc2n[nH]c(=O)c3ccccc23)ccc1F)N1CCN(C(=O)C2CC2)CC1 + Cc1ccccc1N=Nc1ccc(NC(=O)c2ccnn2C)c(C)c1", "> 10 µM"),
]

IN: GET /values?readout=IC50&system=556581-035-R-J1-PDC complex spheroid growth&item= Nc1ncn(C2CC(O)C(CO)S2)c(=O)n1 (centres undefined) + CC(CO)NC(=O)c1cc(-c2ccc(Cl)cc2)nn(-c2cnn(C)c2)c1=O
OUT: > 0.3 µM

IN: What would you report for Nc1ncn(C2CC(O)C(CO)S2)c(=O)n1 (centres undefined) + Cc1ccccc1N=Nc1ccc(NC(=O)c2ccnn2C)c(C)c1 ?
OUT: > 0.3 µM

IN: What would you report for Nc1ccn(C2OC(CO)C(O)C2(F)F)c(=O)n1 (centres undefined) + Cc1ccccc1N=Nc1ccc(NC(=O)c2ccnn2C)c(C)c1 ?
OUT: < 0.0316 µM
